Numbers sourced from ChEMBL document CHEMBL2424622.

measured.on: Tyrosine-protein kinase Mer (Homo sapiens) (UniProt Q12866)
Sequence (Q12866 whole entry): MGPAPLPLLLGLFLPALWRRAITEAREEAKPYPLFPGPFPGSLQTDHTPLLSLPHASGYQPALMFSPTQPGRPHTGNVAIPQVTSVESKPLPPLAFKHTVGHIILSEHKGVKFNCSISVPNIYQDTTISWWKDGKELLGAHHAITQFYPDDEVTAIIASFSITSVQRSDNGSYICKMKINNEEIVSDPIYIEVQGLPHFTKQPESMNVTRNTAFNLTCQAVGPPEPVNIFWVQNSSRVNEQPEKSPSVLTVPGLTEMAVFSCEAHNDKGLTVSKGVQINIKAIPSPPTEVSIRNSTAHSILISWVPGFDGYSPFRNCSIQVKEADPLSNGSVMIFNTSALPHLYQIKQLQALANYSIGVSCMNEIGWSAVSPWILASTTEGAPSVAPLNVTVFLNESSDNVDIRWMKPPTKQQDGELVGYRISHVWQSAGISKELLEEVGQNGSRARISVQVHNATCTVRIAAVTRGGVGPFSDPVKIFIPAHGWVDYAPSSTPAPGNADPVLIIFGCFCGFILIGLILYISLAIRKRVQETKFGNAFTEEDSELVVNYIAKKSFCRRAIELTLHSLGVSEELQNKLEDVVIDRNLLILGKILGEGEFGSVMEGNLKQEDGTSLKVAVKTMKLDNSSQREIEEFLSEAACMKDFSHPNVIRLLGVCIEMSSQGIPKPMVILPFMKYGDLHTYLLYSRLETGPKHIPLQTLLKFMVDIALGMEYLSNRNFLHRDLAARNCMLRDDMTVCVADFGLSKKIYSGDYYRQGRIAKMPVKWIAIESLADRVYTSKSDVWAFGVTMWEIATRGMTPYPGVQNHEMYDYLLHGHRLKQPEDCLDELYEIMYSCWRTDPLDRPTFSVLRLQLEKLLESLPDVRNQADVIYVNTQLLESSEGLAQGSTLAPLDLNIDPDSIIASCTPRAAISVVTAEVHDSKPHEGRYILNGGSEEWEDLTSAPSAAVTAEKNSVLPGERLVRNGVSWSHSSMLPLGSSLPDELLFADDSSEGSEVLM
experiment.summary: Competitive binding affinity to MERTK (unknown origin) at 10 uM in presence of ATP relative to control
Catalogue of inhibition values

Sample answers from the record:
Looking up O[C@H]1CC[C@H](Nc2nccc(-c3n[nH]c4ccccc34)n2)CC1 , I found its inhibition recorded as 100%

inhibition measured on O[C@H]1CC[C@H](Nc2nccc(-n3ccc4ccccc43)n2)CC1 = < 50%

Quick note, inhibition for O[C@H]1CC[C@H](Nc2nccc(-n3ncc4ccccc43)n2)CC1 landed at 92%

Note: attention shifts to another entry.
Note to self: inhibition recorded for O[C@H]1CC[C@H](Nc2nccc(-n3nnc4ccccc43)n2)CC1 was < 50%
